experiment: Evaluation of solubility in mesitylene; type: physicochemical; settings: organic solvent or mixture, thermodynamic from solid; 10 mg compound in test tube, heated at 160° C., mesitylene added until completely dissolved
measurement kind: solubility (µg/mL)
One number for each entry, in µg/mL.

Here's what some known entries look like.
{"compound": "c1ccc(-c2cccc(-c3ccccc3)c2-c2ccc3c4c5c6ccccc6n6c7cc(-c8c(-c9ccccc9)cccc8-c8ccccc8)ccc7c(c7c8ccccc8n(c3c2)c74)c56)cc1", "numeric value": 3100}
{"compound": "Cc1cc(C)c(-c2ccc3c(c2)c2c4c5ccccc5n5c6ccc(-c7c(C)cc(C)cc7C)cc6c(c6c7ccccc7n3c62)c45)c(C)c1 [Compound D1]", "numeric value": 2000}
{"compound": "CC(C)(C)c1cc(-c2ccc3c4c5c6ccc(C(C)(C)C)cc6n6c7cc(-c8cc(C(C)(C)C)cc(C(C)(C)C)c8)ccc7c(c7c8ccc(C(C)(C)C)cc8n(c3c2)c47)c56)cc(C(C)(C)C)c1", "numeric value": 10100}
{"compound": "CC(C)(C)c1cc(-c2ccc3c4c5c6cccc(-c7ccccc7)c6n6c7cc(-c8cc(C(C)(C)C)cc(C(C)(C)C)c8)ccc7c(c7c8cccc(-c9ccccc9)c8n(c3c2)c47)c56)cc(C(C)(C)C)c1", "numeric value": 3000}
{"compound": "CC(C)(C)c1cc(-c2ccc3c4c5c6cc(C(C)(C)C)ccc6n6c7cc(-c8cc(C(C)(C)C)cc(C(C)(C)C)c8)ccc7c(c7c8cc(C(C)(C)C)ccc8n(c3c2)c74)c56)cc(C(C)(C)C)c1", "numeric value": 1000}

Give measured solubility for every item shown.
1. CC(C)(C)c1cc(-c2ccc3c4c5c6ccccc6n6c7cc(-c8cc(C(C)(C)C)cc(C(C)(C)C)c8)ccc7c(c7c8ccccc8n(c3c2)c74)c56)cc(C(C)(C)C)c1
2. CC(C)(C)c1ccc(-c2ccc3c(c2)c2c4c5ccccc5n5c6ccc(-c7ccc(C(C)(C)C)cc7)cc6c(c6c7ccccc7n3c62)c45)cc1 [Compound D2]
3. CC(C)(C)c1cc(-c2cccc3c4c5c6ccccc6n6c7c(-c8cc(C(C)(C)C)cc(C(C)(C)C)c8)cccc7c(c7c8ccccc8n(c23)c74)c56)cc(C(C)(C)C)c1
4. CC(C)(C)c1ccc(-c2ccc3c4c5c6ccccc6n6c7cc(-c8ccc(C(C)(C)C)cc8)ccc7c(c7c8ccccc8n(c3c2)c74)c56)cc1

Result:
[3200, 1300, 10300, 1000]

Ref: patent US20220213113A1
